test system: SNB-19 CNS; test: NCI-60 one-dose screen, 48 h (100 = growth as untreated, 0 = no growth, -100 = all killed); conditions: 10 µM unless noted
The panel holds about 83,000 compounds, 20% with a hit somewhere; the sample as a whole holds those more often.
Form field: growth (one value per entry).

{"COMPOUND": "COc1ccc(NC(=O)CSc2oc(-c3ccccc3)nc2S(=O)(=O)c2ccc(Cl)cc2)c(OC)c1", "growth (%)": 55.4}
{"COMPOUND": "CC(=O)OCCOc1cc(Cl)c(Cl)cc1Cl", "growth (%)": 103}
{"COMPOUND": "CCOC(=O)CSc1nc2sc3c(c2c(=O)n1-c1ccccc1)CCCCC3", "growth (%)": 89.2}
{"COMPOUND": "CC/C(=C(/c1ccc(Cl)cc1)c1ccc(OCCN2CCCCCC2)cc1)c1ccccc1", "growth (%)": 83}
{"COMPOUND": "COC(=O)c1nc(-c2ccc(C)cc2)oc1N1CCOCC1", "growth (%)": 94.9}
